Molecular target: T1, human C5 (human, UniProt P01031 19-673; P01031 678-1676, Beta and alpha chains are disulfide-linked and the protein is glycosylated.)
T1 construct: Either in-house recombinant C5 or plasma derived C5 (CALBIOCHEM) was used; also called recombinant human C5; plasma derived human C5
Assay: Biacore, captured antibody, pH 7.4, 37 C;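 note: biacore binding response of anti-C5 antibody light chain variants captured on chip with human C5 injected, ACES running buffer containing 1.2 mM CaCl₂, parent light chain antibody set to 100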
Below is a list of entries, each paired with its recorded % binding (parent = 100) value.
Field format: number, assumed %, no unit text.

binder="CFP0015 15L 32Y (antibody, V domains shown) VH: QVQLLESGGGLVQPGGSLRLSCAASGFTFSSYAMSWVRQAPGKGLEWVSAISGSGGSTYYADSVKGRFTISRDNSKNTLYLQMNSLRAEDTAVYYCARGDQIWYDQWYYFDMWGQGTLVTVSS VL: DIQMTQSPSSLSASVGDRVTITCRASQSIEDYLAWYQQKPGKAPKLLIYEASNLQSGVPSRFSGSGSGTDFTLTISSLQPEDFATYYCQQYDSSPLTFGQGTKVEIK" quantity="% binding (parent = 100)" quantitative_readout=15.1

Asked: Report % binding (parent = 100) for CFP0011 11L 93S (antibody, V domains shown) VH: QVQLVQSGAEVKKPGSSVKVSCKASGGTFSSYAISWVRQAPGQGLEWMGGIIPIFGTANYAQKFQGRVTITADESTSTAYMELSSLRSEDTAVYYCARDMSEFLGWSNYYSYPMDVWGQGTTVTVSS VL: DIQMTQSPSSLSASVGDRVTITCRASQSIEDDLAWYQQKPGKAPKLLIYHASSLQSGVPSRFSGSGSGTDFTLTISSLQPEDFATYYCQQSDSSPYTFGQGTKVEIK please.
Given back: 4

Asked: Report % binding (parent = 100) for CFP0017 17L 93N (antibody, V domains shown) VH: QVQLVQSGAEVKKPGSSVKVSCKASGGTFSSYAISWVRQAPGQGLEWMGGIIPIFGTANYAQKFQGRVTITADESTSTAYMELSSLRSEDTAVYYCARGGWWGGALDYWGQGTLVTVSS VL: DIQMTQSPSSLSASVGDRVTITCRASQSIEDDLAWYQQKPGKAPKLLIYHASSLQSGVPSRFSGSGSGTDFTLTISSLQPEDFATYYCQQSDNYPLTFGQGTKVEIK please.
Given back: 63

Data origin: patent US20180016327A1
